Target: P. falciparum apicoplast DNA polymerase (Pf-apPOL) (Plasmodium falciparum, UniProt Q8ILY1)
Sequence (Q8ILY1 entry or part of it): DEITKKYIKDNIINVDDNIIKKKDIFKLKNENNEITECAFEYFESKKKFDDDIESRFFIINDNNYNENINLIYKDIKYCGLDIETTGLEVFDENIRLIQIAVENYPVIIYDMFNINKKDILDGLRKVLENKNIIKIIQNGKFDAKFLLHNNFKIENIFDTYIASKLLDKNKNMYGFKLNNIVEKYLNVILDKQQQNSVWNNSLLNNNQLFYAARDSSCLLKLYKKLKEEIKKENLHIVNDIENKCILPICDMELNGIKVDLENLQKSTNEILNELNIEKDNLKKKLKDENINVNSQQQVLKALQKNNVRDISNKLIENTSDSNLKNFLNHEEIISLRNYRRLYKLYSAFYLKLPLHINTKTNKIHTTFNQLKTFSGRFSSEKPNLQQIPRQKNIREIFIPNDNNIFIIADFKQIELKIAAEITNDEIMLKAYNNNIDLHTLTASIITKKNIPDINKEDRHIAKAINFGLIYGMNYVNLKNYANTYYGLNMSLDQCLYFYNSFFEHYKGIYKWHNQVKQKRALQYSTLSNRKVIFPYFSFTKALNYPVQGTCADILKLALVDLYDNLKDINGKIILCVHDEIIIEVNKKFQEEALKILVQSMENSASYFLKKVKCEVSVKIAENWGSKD
Assay: Fluorescence-based high-throughput DNA polymerase assay (molecular beacon), primary screen and dose-response;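 note: test concentration in µM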
Type: biochemical
Details: DRC-2, 90', concentration 20
Would you mind telling me the reported % inhibition ApPOL 90' of each entry?
Numbers only, in %.

Example compounds with recorded % inhibition ApPOL 90':
1. CSCCC(C)(O)CNC(=O)C1CC1 (centres unmarked)    30
2. CSC(C)C(=O)C=CN(C)C (centres unmarked)    39
3. CS(=O)(=O)c1cccc(C(=O)Nc2nnc(-c3ccno3)o2)c1    11
4. O=C(O)C(=O)Nc1nc(-c2ccc3c(c2)OCCO3)cs1    26
5. Cc1nn(CC(=O)NCCSCc2ccco2)c(C)c1Br    16
6. Cc1ncc(CSc2nc(C(C)(C)C)cs2)c(CO)c1O    28
7. CN(C)C=CC(=O)c1ccccn1    36
8. O=[N+]([O-])c1cc2c(cc1CN1CCCCCC1)OCO2    23
9. O=C(Nc1nnc(-c2ccno2)o1)c1ccc2ncsc2c1    38
10. Oc1ccc(N=Nc2ccccc2)c(O)c1    24

Give % inhibition ApPOL 90' for each of the items listed below.
1. O=C(Nc1nnc(-c2cccs2)o1)c1ccc([N+](=O)[O-])o1
2. O=C(Nc1ncc([N+](=O)[O-])s1)c1ccc2c(c1)C(=O)N(N1C(=O)c3ccccc3C1=O)C2=O
3. COc1cc(/C=C2\S/C(=N/C(C)=O)NC2=O)cc(Br)c1OCC(=O)O
4. O=c1cc(-c2ccccc2)oc2c(O)c(O)ccc12
5. CN(C)C=C1SCc2ccccc2C1=O
6. CCOc1ccccc1-c1nc(-c2ccc(=O)[nH]c2)no1 [Molecule 76, CCOc1ccccc1c1onc(n1)c1ccc(=O)[nH]c1]
7. O=C(O)CC1SC(c2ccc3c(c2)OCO3)=NC1=O (centres unmarked)
8. O=C(c1c[nH]c2ncccc12)N1CCCCCC1 [Molecule 51, O=C(c1c[nH]c2c1cccn2)N1CCCCCC1]

Result block:
32
39
20
17
18
26
16
46

For each listed entry, give its % inhibition ApPOL 90'.
1. O=[N+]([O-])c1cc2c(cc1CN1CCN(c3cccc(Cl)c3)CC1)OCO2
2. Cn1nc(C(=O)N2CCc3c(nc4cc(-c5ccccc5)[nH]n4c3=O)C2)c2ccccc21
3. O=C(O)c1c(F)c(F)c(-c2c(F)c(F)c(C(=O)O)c(F)c2F)c(F)c1F

Result block:
20
54
39

// each listed compound needs a value for % inhibition ApPOL 90'
1. COc1ccc2c(c1)CCc1c-2nc2ccc(Br)cc2c1C(=O)O
2. CCSc1nnc(NC(=O)Cc2csc(NC(=O)c3cnccn3)n2)s1
3. O=C(O)CC1=NN(c2cccc([N+](=O)[O-])c2)C(=O)C1
4. COc1ccccc1CCC(=O)N1CCc2c(nc3cc(-c4ccccc4)[nH]n3c2=O)C1
5. COc1ccc(C(=O)Nc2cccc(-c3nc4ncccc4o3)c2)cc1[N+](=O)[O-]
6. O=C(Nc1nnc(-c2ccno2)o1)c1ccc2c(c1)OCO2

Result block:
1: 37; 2: 35; 3: 31; 4: 65; 5: -0.691; 6: 10

Would you mind listing % inhibition ApPOL 90' for each of the following compounds?
1. CCOC(=O)C(NCc1ccco1)(NC(=O)c1ccco1)C(F)(F)F (centres unmarked)
2. CO/N=C(\C(=O)N[C@@H]1C(=O)N2C(C(=O)[O-])=C(CSc3nc(=O)c([O-])nn3C)CSC12)c1csc(N)n1.[Na+].[Na+] (some centres unmarked)
3. O=C(NNC(=O)C(F)(F)Sc1ccccc1)c1ccsc1 [Molecule 68, O=C(C(Sc1ccccc1)(F)F)NNC(=O)c1cscc1]

Result block:
1. 17
2. 12
3. 22

Working through the 2 compounds below one at a time, give % inhibition ApPOL 90' for each.
1. CC1=NNC(=O)C1Oc1ccc(Cl)cc1Cl (centres unmarked)
2. CN1CC(=Cc2ccco2)C(=O)C(=Cc2ccco2)C1

Result block:
[20, 38]
